# System Tested: KRAS G13D (Homo sapiens, UniProt P01116+P62937, G13D)
# Sequence (P01116 1-169 isoform P01116-2 G13D limits assumed): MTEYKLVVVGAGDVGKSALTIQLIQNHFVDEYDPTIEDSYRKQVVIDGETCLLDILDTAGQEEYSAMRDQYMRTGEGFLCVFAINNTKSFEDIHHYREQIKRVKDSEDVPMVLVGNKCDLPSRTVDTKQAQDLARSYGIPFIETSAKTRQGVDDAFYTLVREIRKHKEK
# Sequence (P62937 whole entry): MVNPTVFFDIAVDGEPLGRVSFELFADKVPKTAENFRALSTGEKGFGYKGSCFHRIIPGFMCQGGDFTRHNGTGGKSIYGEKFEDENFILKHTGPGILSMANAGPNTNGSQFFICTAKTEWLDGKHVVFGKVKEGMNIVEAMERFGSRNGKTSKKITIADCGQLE
# Protocol Summary: Disruption of BRAF RBD interaction with Ras (FRET / MOA assay, with Cyclophilin A)
# Format: biochemical
# Measurement Setup: KRAS G13D; read-out: KRAS G13D FRET data IC50
The entries below come with measured IC50 values attached.

>>> measured("CCn1c(-c2cccnc2[C@H](C)OC)c2c3cc(ccc31)-c1cc(O)cc(c1)C[C@H](NC(=O)[C@H](C(C)C)N(C)C(=O)C1NCCC13CC3)C(=O)N1CCC[C@H](N1)C(=O)OCC(C)(C)C2 (stereo partly drawn)")
"0.01 to 0.1 µM"
>>> measured("CCn1c(-c2cccnc2[C@H](C)OC)c2c3cc(ccc31)-c1csc(n1)C[C@H](NC(=O)[C@H](C(C)C)N(C)C(=O)N1CCC3(CCN(C)CC3)C1)C(=O)N1CCC[C@H](N1)C(=O)OCC(C)(C)C2 (atropisomer, axis not shown)")
"0.1 to 1 µM"

Ask: Request the reported IC50 associated with CCn1c(-c2cccnc2[C@H](C)OC)c2c3cc(ccc31)-c1cc(O)cc(c1)C[C@H](NC(=O)[C@H](C(C)C)N(C)C(=O)[C@H]1C[C@@H]1C)C(=O)N1CCC[C@H](N1)C(=O)OCC(C)(C)C2
Result: 0.1 to 1 µM

* * *

# System Tested: KRAS Q61H (Homo sapiens, UniProt P01116+P62937, Q61H)
# Sequence (P01116 1-169 isoform P01116-2 Q61H limits assumed, one chain of several): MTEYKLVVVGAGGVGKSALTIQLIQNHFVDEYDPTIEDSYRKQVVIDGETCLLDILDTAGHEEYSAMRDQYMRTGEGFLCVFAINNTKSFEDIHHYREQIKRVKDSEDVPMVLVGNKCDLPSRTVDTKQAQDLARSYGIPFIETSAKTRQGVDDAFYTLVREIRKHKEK
# Protocol Summary: Disruption of BRAF RBD interaction with Ras (FRET / MOA assay, with Cyclophilin A)
# Format: biochemical
# Measurement Setup: KRAS Q61H; read-out: KRAS Q61H FRET data IC50
pIC50: −log10 of the molar value.
Readout Kind: pIC50

Below are worked cases with known answers.
>>> measured("CCn1c(-c2cccnc2[C@H](C)OC)c2c3cc(ccc31)-c1csc(n1)C[C@H](NC(=O)[C@H](C(C)C)N(C)C(=O)N1CC[C@@H](O)C1)C(=O)N1CCC[C@H](N1)C(=O)OCC(C)(C)C2 (atropisomer, axis not shown)")
"7.00 to 8.00"
>>> measured("CCn1c(-c2cccnc2[C@H](C)OC)c2c3cc(ccc31)-c1csc(n1)C[C@H](NC(=O)[C@H](C(C)C)N(C)C(=O)N1CC(C)(OC)C1)C(=O)N1CCC[C@H](N1)C(=O)OCC(C)(C)C2")
"6.00 to 7.00"

Ask: Looking for the measured pIC50 of CCn1c(-c2cccnc2[C@H](C)OC)c2c3cc(ccc31)-c1csc(n1)C[C@H](NC(=O)[C@H](C(C)C)N(C)C(=O)N1CCN(C(=O)C3(N(C)C)CC3)CC1)C(=O)N1CCC[C@H](N1)C(=O)OCC(C)(C)C2 (atropisomer, axis not shown) , can you help?
Result: 7.00 to 8.00

Ask: // pIC50 lookup, key: CCn1c(-c2cccnc2[C@H](C)OC)c2c3cc(ccc31)-c1csc(n1)C[C@H](NC(=O)[C@H](C(C)C)N(C)C(=O)N1CC3(CC(N(C)C)C3)C1)C(=O)N1CCC[C@H](N1)C(=O)OCC(C)(C)C2 (atropisomer, axis not shown)
Result: 7.00 to 8.00

Ask: Could you tell me which pIC50 is on file for CCn1c(-c2cccnc2[C@H](C)OC)c2c3cc(ccc31)-c1csc(n1)C[C@H](NC(=O)c1ccccn1)C(=O)N1CCC[C@H](N1)C(=O)OCC(C)(C)C2 ?
Result: 6.00 to 7.00

Ask: # lookup: pIC50 of CCn1c(-c2cc(N3CCN(C)CC3)cnc2[C@H](C)OC)c2c3cc(ccc31)-c1csc(n1)C[C@H](NC(=O)[C@H](C(C)C)N(C)C(=O)N(C)C)C(=O)N1CCC[C@H](N1)C(=O)OCC(C)(C)C2 (atropisomer, axis not shown)
Result: 7.00 to 8.00

Ask: Query: pIC50; subject: C=CC(=O)N1CC[C@H](C(=O)N(C)[C@H](C(=O)N[C@H]2Cc3cc(O)cc(c3)-c3ccc4c(c3)c(c(-c3cc(F)cnc3COC)n4CC)CC(C)(C)COC(=O)[C@@H]3CCCN(N3)C2=O)C(C)C)C1
Result: 7.00 to 8.00

Ask: Given the entry C=CC(=O)N1CC(OC[C@H](C(=O)N[C@H]2Cc3cc(F)cc(c3)-c3ccc4c(c3)c(c(-c3cccnc3[C@H](C)OC)n4CC)CC(C)(C)COC(=O)[C@@H]3CCCN(N3)C2=O)C(C)C)C1 (atropisomer, axis not shown) , report its measured pIC50.
Result: 6.00 to 7.00

Ask: Fill blank: measured pIC50 of the compound CCn1c(-c2cnccc2COC)c2c3cc(ccc31)-c1cc(O)cc(c1)C[C@H](NC(=O)[C@H](C(C)C)N(C)C(=O)[C@H]1CCN(C(=O)/C=C/CN(C)C)C1)C(=O)N1CCC[C@H](N1)C(=O)OCC(C)(C)C2 is ____.
Result: 7.00 to 8.00

Ask: Reported pIC50 for CCn1c(-c2cccnc2[C@H](C)OC)c2c3cc(ccc31)-c1csc(n1)C[C@H](NC(=O)[C@H](C(C)C)N(C)C(=O)N(C)C1(COC)COC1)C(=O)N1CCC[C@H](N1)C(=O)OCC(C)(C)C2 : what is it?
Result: 6.00 to 7.00

Ask: Name the reported pIC50 value associated with the compound CCn1c(-c2cccnc2[C@H](C)OC)c2c3cc(ccc31)-c1cccc(c1)C[C@H](NC(=O)[C@@H](COC1CN(C(=O)C#C[C@@H]3COCCN3C)C1)C(C)C)C(=O)N1CCC[C@H](N1)C(=O)OCC(C)(C)C2 (atropisomer, axis not shown)
Result: < 5.00

Ask: Need pIC50 of CCn1c(-c2cccnc2[C@H](C)OC)c2c3cc(ccc31)-c1csc(n1)C[C@H](NC(=O)[C@H](C(C)C)N(C)C(=O)N1CC(N(C)C)C1)C(=O)N1CCC[C@H](N1)C(=O)OCC(C)(C)C2 (racemic) , thanks.
Result: 6.00 to 7.00

* * *

Reported values of IC50 for individual entries
# Test system: Capan-1 (K-Ras G12V)
# Protocol Summary: CellTiter-Glo cell viability assay, 5-day treatment
# Assay type: cell-based
# Measurement Setup: Homo sapiens, CAPAN-1, 120 h, 5-day treatment; read-out: Capan-1 Cell Viability assay data (K-Ras G12V, IC50)

Example results:
>>> measured("CCn1c(-c2cccnc2[C@H](C)OC)c2c3cc(ccc31)-c1csc(n1)C[C@H](NC(=O)[C@H](C(C)C)N(C)C(=O)N1CC(N3CCN(C)CC3)C1)C(=O)N1CCC[C@H](N1)C(=O)OCC(C)(C)C2")
"10 to 100 nM"
>>> measured("CCn1c(-c2cccnc2[C@H](C)OC)c2c3cc(ccc31)-c1csc(n1)C[C@H](NC(=O)[C@H](C(C)C)N(C)C(=O)N1CCC(C(=O)C(F)(F)F)CC1)C(=O)N1CCC[C@H](N1)C(=O)OCC(C)(C)C2")
"100 to 1000 nM"
>>> measured("CCn1c(-c2cc(N3CCN(C)CC3)cnc2[C@H](C)OC)c2c3cc(ccc31)-c1cc(O)cc(c1)C[C@H](NC(=O)[C@H](C(C)C)N(C)C(=O)[C@@H]1OCC[C@@H]1c1ccccc1)C(=O)N1CCC[C@H](N1)C(=O)OCC(C)(C)C2 (atropisomer, axis not shown)")
"< 10 nM"

Next up:
Ask: Return reported IC50; argument: CCn1c(-c2cccnc2[C@H](C)OC)c2c3cc(ccc31)-c1cc(O)cc(c1)C[C@H](NC(=O)[C@H](C(C)C)N(C)C(=O)C1Cc3cccnc3C1)C(=O)N1CCC[C@H](N1)C(=O)OCC(C)(C)C2 (stereo partly shown)
Result: 10 to 100 nM

* * *

Recorded measurements of IC50, one per entry
# System Tested: NRAS Q61K (Homo sapiens, UniProt P01111+P62937, Q61K)
# Sequence (P01111 whole entry Q61K, one chain of several): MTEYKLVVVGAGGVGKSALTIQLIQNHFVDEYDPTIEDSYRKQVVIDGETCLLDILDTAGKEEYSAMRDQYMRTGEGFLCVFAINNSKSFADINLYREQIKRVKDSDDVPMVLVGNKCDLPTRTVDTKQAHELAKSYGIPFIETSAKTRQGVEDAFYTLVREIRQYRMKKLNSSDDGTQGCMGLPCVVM
# Protocol Summary: Disruption of BRAF RBD interaction with Ras (FRET / MOA assay, with Cyclophilin A)
# Assay type: biochemical
# Measurement Setup: NRAS Q61K; read-out: NRAS Q61K FRET data IC50

Ask: Which measured IC50 value corresponds to C=CC(=O)N1CC[C@@H](N(C)C(=O)N(C)[C@H](C(=O)N[C@H]2Cc3nc(cs3)-c3ccc4c(c3)c(c(-c3cccnc3[C@H](C)OC)n4CC)CC(C)(C)COC(=O)[C@@H]3CCCN(N3)C2=O)C(C)C)C1 ?
Result: 0.01 to 0.1 µM

Ask: Which value of IC50 has been reported for CCn1c(-c2cccnc2[C@H](C)OC)c2c3cc(ccc31)-c1csc(n1)C[C@H](NC(=O)[C@H](C(C)C)N(C)C(=O)N1CC3(CN(C)CCO3)C1)C(=O)N1CCC[C@H](N1)C(=O)OCC(C)(C)C2 in the records?
Result: 0.1 to 1 µM

Ask: Any idea what its IC50 is? The compound is C=CC(=O)N1CC[C@H](C(=O)N(C)[C@H](C(=O)N[C@H]2Cc3nsc(n3)-c3ccc4c(c3)c(c(-c3cccnc3[C@H](C)OC)n4CC)CC(C)(C)COC(=O)[C@@H]3CCCN(N3)C2=O)C(C)C)C1 (atropisomer, axis not shown)
Result: 0.1 to 1 µM

Ask: What does the record list as IC50 for CCn1c(-c2cccnc2[C@H](C)OC)c2c3cc(ccc31)-c1csc(n1)C[C@H](NC(=O)[C@H](C(C)C)N(C)C(=O)N1CC([C@H](C)NC)C1)C(=O)N1CCC[C@H](N1)C(=O)OCC(C)(C)C2 ?
Result: 0.1 to 1 µM

Ask: # IC50 lookup, item CCn1c(-c2cccnc2[C@H](C)OC)c2c3cc(ccc31)-c1csc(n1)C[C@H](NC(=O)[C@H](C(C)C)N(C)C(=O)N(C)C1CCC1)C(=O)N1CCC[C@H](N1)C(=O)OCC(C)(C)C2 (atropisomer, axis not shown)
Result: 0.01 to 0.1 µM

Ask: Record request: IC50 value, item CCn1c(-c2cccnc2[C@H](C)OC)c2c3cc(ccc31)-c1csc(n1)C[C@H](NC(=O)[C@H](C(C)C)N(C)C(=O)N1CC(C(C)(C)OC)C1)C(=O)N1CCC[C@H](N1)C(=O)OCC(C)(C)C2 (atropisomer, axis not shown)
Result: 0.01 to 0.1 µM
